Label scheme for logP: lower than 2 is Criterion not met, 2 and above is Criterion met.

- OCc1ccc(C(O)(Cn2ccnc2)c2ccc(-c3ccncc3)cc2)cc1 (centres undefined): Criterion met
- CCCCC(CCCC)C(=O)O: Criterion met

Query :: Quick check, logP >= 2? COC(=O)N(C)SN(C)C(=O)ON=C(C)SC
Result :: Criterion not met

Query :: Quick check, logP >= 2? NS(=O)(=O)c1ccc(Cl)c(Cl)c1
Result :: Criterion not met

Query :: Quick check, logP >= 2? CC1OC(OC2CCC3(C=O)C4CCC5(C)C(C6=CC(=O)OC6)CCC5(O)C4CCC3(O)C2)C(O)C(O)C1O (centres undefined)
Result :: Criterion not met

Query :: Quick check, logP >= 2? CNC(=O)NS(=O)(=O)c1ccc(Cl)cc1
Result :: Criterion not met

Query :: Quick check, logP >= 2? COc1cc(S(C)=O)ccc1-c1nc2ncccc2[nH]1 (centres undefined)
Result :: Criterion not met

Query :: Quick check, logP >= 2? Cc1cc(Br)cc(C(N)=O)c1O
Result :: Criterion met

Query :: Quick check, logP >= 2? CCCCCCCCCCCC(=O)CC(=O)Nc1c(OC)cc(OC)cc1OC
Result :: Criterion met

---

Overview of recorded logP for various molecules

Please review the following examples before continuing.
- CNC(=C[N+](=O)[O-])NCCSCc1ccc(CN(C)C)o1: 0.27
- CCCCCCCCCCCCCc1ccc(O)cc1: 8.2

From here, focus on the item given below.
Query :: Please look up its logP: Cc1ncc(CO)c(CO)c1O
Result :: -0.77

---

Overview of recorded logP for various compounds
Format: numeric value only, no unit, no commentary.

Please review the following examples before continuing.
• CCC1OC(=O)C(C)C(OC2CC(C)(OC)C(OC=O)C(C)O2)C(C)C(OC2OC(C)CC(N(C)C)C2O)C(C)(O)CC(C)C(=O)C(C)C(O)C1(C)O (stereo not drawn) = 2.64
• CCC(C(=O)OCc1ccccc1)C(COC(=O)c1cccnc1)Cc1cncn1C (stereo not drawn) = 3.05
• O=C1c2ccccc2C(=O)C1c1ccc(Br)cc1 = 3.76
• COc1cc(OC)cc(C2C(=O)c3ccccc3C2=O)c1 = 2.86
• [N-]=[N+]=N[C@H]1C[C@H](n2ccc(N)nc2=O)O[C@@H]1CO = -0.7

Query :: Please look up its logP: Cc1cccc(C)c1NC(=O)CN
Result :: 0.41

Query :: Please look up its logP: CCOC(=O)c1ccc(S(N)(=O)=O)cc1
Result :: 1.17

Query :: Please look up its logP: CCC(=O)OCOC(=O)c1cc(S(N)(=O)=O)c(Cl)cc1NCc1ccco1
Result :: 2.9

---

Overview of recorded logP for various compounds
Format: numeric value only, no unit, no commentary.

Please review the following examples before continuing.
- CCc1cc(CC)cc(C2C(=O)c3ccccc3C2=O)c1: 4.94
- CCCNC(=O)COc1ccc(OCCNCC(O)COc2ccccc2)cc1 (stereo not drawn): 2.4
- CCOC(=O)Cn1nc2ccccc2n1: 1.85
- CCc1ccc2cc3ccccc3cc2c1: 5.85
- C=C1C(=O)OC2CC3(C)CCCC(=C)C3CC12 (stereo not drawn): 3.42

Query :: Please look up its logP: COc1ccc(C(=O)CC(C)CC(=O)O)cc1Cl (stereo not drawn)
Result :: 2.6

Query :: Please look up its logP: C=C1C(=O)OC2C1C(OC(=O)C(C)=CC)CC1(CO1)C1C(OC(C)=O)C=C(C)C21O (stereo not drawn)
Result :: 0.76

Query :: Please look up its logP: Brc1cc2ccccc2nn1
Result :: 1.72

Query :: Please look up its logP: CC1CCCC(c2ccccc2)(N2CCCCC2)C1 (stereo not drawn)
Result :: 5.86

Query :: Please look up its logP: O=C(NN1CC=CCC1)c1cccs1
Result :: 1.88

Query :: Please look up its logP: CCS[C@@H]1O[C@H](CO)[C@H](O)[C@H](O)[C@H]1O
Result :: -1.51

Query :: Please look up its logP: CCn1c(=O)n(C)c(=O)c2[nH]cnc21
Result :: 0.52

Query :: Please look up its logP: Cc1ccc(Cl)c(N=C2NCCN2)c1
Result :: 1.83

---

Overview of recorded logP for various compounds
Format: numeric value only, no unit, no commentary.

Please review the following examples before continuing.
• COc1cc(Br)c(Cc2cnc(N)nc2N)cc1OC = 1.64
• COc1ccc(CCOC(=O)C(N)Cc2ccc(O)c(O)c2)cc1 (stereo not drawn) = 1.69
• CCCCCCCCCCCCCCCCCCCC(=O)O = 9.29

Query :: Please look up its logP: Cc1cccc(C)c1NC(=O)CCCC(C)N (stereo not drawn)
Result :: 1.41

Query :: Please look up its logP: O=c1[nH]c(-c2ccccc2)nc2nn[nH]c12
Result :: 1.27

Query :: Please look up its logP: CC(=O)C(C)CN1CCCCC1 (stereo not drawn)
Result :: 1.28

Query :: Please look up its logP: CSC(C)=NOC(=O)N(C)SN(C(=O)N(C)C)C1CC1
Result :: 2

Query :: Please look up its logP: CC(C)NCC1CCc2cc(CO)c([N+](=O)[O-])cc2N1 (stereo not drawn)
Result :: 2.24

---

Overview of recorded logP for various molecules
Format: numeric value only, no unit, no commentary.

• C=C(C)C(=O)OCC(C)(O)COc1cccc2ccccc12 (stereo not drawn) = 3.77
• C#CCC(O)(c1cccnc1)C1CCCCC1 (stereo not drawn) = 2.09
• CCC(CC)C(=O)O = 1.68
• Cc1cccc(C)c1NC(=O)CCCN = 0.71
• CC(C)(C)c1cccc(C2C(=O)c3ccccc3C2=O)c1 = 4.88

Query :: Please look up its logP: Cc1cccc(C)c1OC(=O)c1ccc(N)cc1O
Result :: 3.88

---

Label scheme for logP: lower than 3 is label 0, 3 and above is label 1.

Solved entries (count: 5):
- CCCCCCCCCCCCCCCCCC(=O)O: label 1
- Cc1ccccc1OCC(O)CNCCOc1ccc(C(N)=O)cc1 (stereo not drawn): label 0
- O=C(O)C=COc1ccccc1: label 0
- CCOc1ccc(Cc2cnc(N)nc2N)cc1OCC: label 0
- OC1(c2ccccc2Cl)CCCCC1n1cncn1 (stereo not drawn): label 0

Query :: Quick check, logP >= 3? CN(C)c1ccc2ccccc2n1
Result :: label 0

Query :: Quick check, logP >= 3? O=C1C(Nc2ccccc2)=C(S(=O)(=O)c2ccccc2)C(=O)c2ccccc21
Result :: label 1

---

Overview of recorded logP for various compounds
Format: numeric value only, no unit, no commentary.

• CCOC(=O)Cn1nnc2ccccc21 = 1.3

Query :: Please look up its logP: COC(=O)/C=C/Oc1ccccc1
Result :: 2.68

Query :: Please look up its logP: CCCn1c(=O)[nH]c(=O)c2[nH]cnc21
Result :: 0.33

---

Overview of recorded logP for various compounds
Format: numeric value only, no unit, no commentary.

Please review the following examples before continuing.
* Cc1ccc(S(=O)(=O)NC(=O)Nc2ccccc2)cc1 | 3.11
* CNC(C)C(OC)c1ccccc1 (configuration not stated) | 2.05
* COCOC(=O)C1N2C(=O)C(N3C(=O)C(c4ccc(O)cc4)NC3(C)C)C2SC1(C)C (configuration not stated) | 0.3
* CC(=O)c1cccc(Nc2ccccc2C(=O)O)c1 | 4.07
* O=C1CCc2ccccc2N1 | 1.34
* COc1ncnc(NS(=O)(=O)c2ccc(N)cc2)c1OC(C)C | 1.03
* CCCN(CCC)CC(=O)NCc1ccccc1 | 3.11
* C=Cc1ccc(C(=O)O)cc1 | 2.18

From here, focus on the item given below.
Query :: Please look up its logP: CCCCCCCCCCC(C)(C)c1ccc(C2CCCC(O)C2)c(O)c1 (configuration not stated)
Result :: 8.42

---

Flag rule - logP less than 3 flags 1; the remaining entries get -1.

* CCN1CC(C(O)C(CC2CCCCC2)NC(=O)C(Cc2cnc[nH]2)NC(=O)C(Cc2ccc(OC)cc2)NC(=O)N(C)CCOCOCCOC)OC1=O (centres undefined) | 1
* CCCCc1cc(OC)c(CC(C)N)cc1OC (centres undefined) | -1
* C#CC1(O)C(F)CC2C3CCc4cc(O)ccc4C3C(CC)CC21C (centres undefined) | -1

Query :: Would you kindly verify if logP of CN(C)c1ccc(C(O)(Cn2ccnc2)c2ccc(-c3ccncc3)cc2)cc1 (centres undefined) is strictly less than 3?
Result :: -1

---

Flag rule - logP less than 2 flags yes (1); the remaining entries get no (0).

Solved entries (count: 3):
- CCN(CC)C(C)CCCC(=O)Nc1c(C)cccc1C (stereo not given): no (0)
- CCCOC(=O)C(C(=O)OCCC)=C1SCCS1: no (0)
- O=C(O)CN1C(=O)C=CC1=O: yes (1)

Query :: Would you kindly verify if logP of CC1OC(OC2C(O)CC(OC3C(O)CC(OC4CCC5(C)C(CCC6C5CCC5(C)C(C7=CC(=O)OC7)C(O)CC65O)C4)OC3C)OC2C)CC(O)C1O (stereo not given) is strictly less than 2?
Result :: yes (1)

Query :: Would you kindly verify if logP of Cc1ccc(N(C)C)cc1 is strictly less than 2?
Result :: no (0)

Query :: Would you kindly verify if logP of CCC(C(=O)OCc1ccc(Cl)cc1)C(COC(=O)c1ccccc1)Cc1cncn1C (stereo not given) is strictly less than 2?
Result :: no (0)

Query :: Would you kindly verify if logP of [O-][n+]1ccc(NO)c2ccccc21 is strictly less than 2?
Result :: yes (1)

Query :: Would you kindly verify if logP of c1ccc(-c2nccs2)cc1 is strictly less than 2?
Result :: no (0)
